Target: Fatty-acid amide hydrolase 1 (Homo sapiens)
Sequence (O00519 whole entry): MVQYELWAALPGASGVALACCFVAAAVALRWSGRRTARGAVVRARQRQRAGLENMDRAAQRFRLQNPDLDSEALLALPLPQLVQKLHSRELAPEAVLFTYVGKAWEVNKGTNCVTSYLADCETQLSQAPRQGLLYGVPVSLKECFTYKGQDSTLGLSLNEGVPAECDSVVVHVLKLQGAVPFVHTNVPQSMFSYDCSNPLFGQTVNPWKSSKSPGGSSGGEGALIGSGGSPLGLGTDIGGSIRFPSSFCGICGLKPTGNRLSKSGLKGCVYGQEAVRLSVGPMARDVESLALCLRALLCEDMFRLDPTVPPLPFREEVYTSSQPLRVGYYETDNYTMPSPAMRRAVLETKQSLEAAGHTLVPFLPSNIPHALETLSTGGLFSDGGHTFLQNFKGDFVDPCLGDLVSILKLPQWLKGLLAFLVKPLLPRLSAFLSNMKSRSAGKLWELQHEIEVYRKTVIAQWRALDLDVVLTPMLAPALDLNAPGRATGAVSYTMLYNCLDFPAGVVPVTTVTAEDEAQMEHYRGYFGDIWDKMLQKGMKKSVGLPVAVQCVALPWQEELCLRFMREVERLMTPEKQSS
Assay: Inhibition of human recombinant FAAH overexpressed in African green monkey COS7 cells using [3H]-anandamide as substrate preincubated for 10 mins before substrate addition measured after 10 mins by liquid scintillation counting analysis
Type: cell-based, COS-7
Conditions: read-out: IC50
propertyMeasured: IC50 (nM)
Numbers only, in nM.

>>> readoutnumber("COc1nn([C@@H](C)c2ccc(N(c3ccccc3)c3ccccc3)cc2)c(=O)o1")
98
>>> readoutnumber("COc1nn(Cc2ccc(CC(C)C)cc2)c(=O)o1")
91

Please give the measured IC50 for this compound: COc1nn(Cc2ccc(-c3ccccc3)cc2)c(=O)o1
160

====

Biological target: Monoglyceride lipase (Homo sapiens)
Assay: Inhibition of human recombinant MAGL overexpressed in HEK cells using 2-AG as substrate at 10 uM preincubated for 10 mins before substrate addition measured after 10 mins by HPLC analysis relative to control
Format: cell-based
Details: HEK293
The source made the active and inactive calls. The calls are words filed in the database; no cut-off is given here.
propertyMeasured: inhibition

>>> result("COc1nn(C(C)c2ccc(CC(C)C)cc2)c(=O)o1 (racemic)")
"48%"
>>> result("COc1nn(C(C)c2ccccc2)c(=O)o1 (centres undefined)")
"inactive"
>>> result("COc1nn(Cc2ccccc2Oc2ccccc2)c(=O)o1")
"inactive"
>>> result("COc1nn(C(C)C)c(=O)o1")
"6%"
>>> result("COc1nn(C(c2ccccc2)c2ccccc2)c(=O)o1")
"inactive"
>>> result("COc1nn(C(C)c2cccc(-c3ccccc3)c2)c(=O)o1 (centres undefined)")
"42%"

Each molecule below has a reported value. Please supply its inhibition.
1. COc1nn([C@@H](C)c2ccc(-c3ccccc3)cc2)c(=O)o1
2. COc1nn(Cc2ccccc2)c(=O)o1
3. COc1nn(Cc2cccc(Oc3ccccc3)c2)c(=O)o1

18%
inactive
15%
